Molecular target: Galectin-7 (Homo sapiens, UniProt P47929)
Sequence (P47929 whole entry): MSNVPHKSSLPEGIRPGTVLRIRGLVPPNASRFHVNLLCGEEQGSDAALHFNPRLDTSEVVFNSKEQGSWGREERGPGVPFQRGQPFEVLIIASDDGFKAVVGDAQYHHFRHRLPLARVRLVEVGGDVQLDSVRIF
Decision: Kd beneath 100 µM gives label 1; Kd meeting or exceeding 100 µM gives label 0.

Data request: Field: below-cutoff. Rule: recorded Kd strictly less than 100 µM. Subject: `CO[C@@H]1O[C@H](CO)[C@@H](O[C@@H]2O[C@H](CO)[C@H](O)[C@H](NC(=S)N[C@H]3[C@@H](O)[C@@H](CO)O[C@@H](O[C@H]4[C@H](O)[C@@H](NC(C)=O)[C@H](OC)O[C@@H]4CO)[C@@H]3O)[C@H]2O)[C@H](O)[C@H]1NC(C)=O`
Data returned: label 0

Data request: Field: below-cutoff. Rule: recorded Kd strictly less than 100 µM. Subject: `CNC(=S)N[C@H]1[C@@H](O)[C@@H](CO)O[C@@H](O[C@H]2[C@H](O)[C@@H](NC(C)=O)[C@H](OC)O[C@@H]2CO)[C@@H]1O`
Data returned: label 1

Data request: Field: below-cutoff. Rule: recorded Kd strictly less than 100 µM. Subject: `CO[C@@H]1O[C@H](CO)[C@@H](O[C@@H]2O[C@H](CO)[C@H](O)[C@H](NC(=S)Nc3ccccc3)[C@H]2O)[C@H](O)[C@H]1NC(C)=O`
Data returned: label 0

Data request: Field: below-cutoff. Rule: recorded Kd strictly less than 100 µM. Subject: `CCCCNC(=S)N[C@H]1[C@@H](O)[C@@H](CO)O[C@@H](O[C@H]2[C@H](O)[C@@H](NC(C)=O)[C@H](OC)O[C@@H]2CO)[C@@H]1O`
Data returned: label 0

Data request: Field: below-cutoff. Rule: recorded Kd strictly less than 100 µM. Subject: `CO[C@@H]1O[C@H](CO)[C@@H](O[C@@H]2O[C@H](CO)[C@H](O)[C@H](NC(=S)NCCCO)[C@H]2O)[C@H](O)[C@H]1NC(C)=O`
Data returned: label 0

Data request: Field: below-cutoff. Rule: recorded Kd strictly less than 100 µM. Subject: `CO[C@@H]1O[C@H](CO)[C@@H](O[C@@H]2O[C@H](CO)[C@H](O)[C@H](NC(N)=S)[C@H]2O)[C@H](O)[C@H]1NC(C)=O`
Data returned: label 0

---

Target: Galectin-1 (Homo sapiens)
Sequence (P09382 whole entry): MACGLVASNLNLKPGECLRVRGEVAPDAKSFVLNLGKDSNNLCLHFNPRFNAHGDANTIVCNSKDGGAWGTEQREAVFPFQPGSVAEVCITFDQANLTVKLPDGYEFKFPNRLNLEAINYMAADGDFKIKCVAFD
For each record, write down the corresponding Kd.
Numbers only here, please. The scale is µM.

Data request: Sample `CCN(CC)C(=S)N[C@H]1[C@@H](O)[C@@H](CO)O[C@@H](O[C@H]2[C@H](O)[C@@H](NC(C)=O)[C@H](OC)O[C@@H]2CO)[C@@H]1O` — what was its Kd?
Data returned: 46

Data request: Sample `CO[C@@H]1O[C@H](CO)[C@@H](O[C@@H]2O[C@H](CO)[C@H](O)[C@H](NC(=S)N[C@H]3[C@@H](O)[C@@H](CO)O[C@@H](O[C@H]4[C@H](O)[C@@H](NC(C)=O)[C@H](OC)O[C@@H]4CO)[C@@H]3O)[C@H]2O)[C@H](O)[C@H]1NC(C)=O` — what was its Kd?
Data returned: 58

Data request: Sample `CO[C@@H]1O[C@H](CO)[C@@H](O[C@@H]2O[C@H](CO)[C@H](O)[C@H](NC(N)=S)[C@H]2O)[C@H](O)[C@H]1NC(C)=O` — what was its Kd?
Data returned: 43

Data request: Sample `CO[C@@H]1O[C@H](CO)[C@@H](O[C@@H]2O[C@H](CO)[C@H](O)[C@H](NC(=S)Nc3ccccc3)[C@H]2O)[C@H](O)[C@H]1NC(C)=O` — what was its Kd?
Data returned: 45

Data request: Sample `CO[C@@H]1O[C@H](CO)[C@@H](O[C@@H]2O[C@H](CO)[C@H](O)[C@H](NC(=S)NCCCO)[C@H]2O)[C@H](O)[C@H]1NC(C)=O` — what was its Kd?
Data returned: 23

Data request: Sample `CCCCNC(=S)N[C@H]1[C@@H](O)[C@@H](CO)O[C@@H](O[C@H]2[C@H](O)[C@@H](NC(C)=O)[C@H](OC)O[C@@H]2CO)[C@@H]1O` — what was its Kd?
Data returned: 23

Data request: Sample `CNC(=S)N[C@H]1[C@@H](O)[C@@H](CO)O[C@@H](O[C@H]2[C@H](O)[C@@H](NC(C)=O)[C@H](OC)O[C@@H]2CO)[C@@H]1O` — what was its Kd?
Data returned: 49

Data request: Sample `CO[C@@H]1O[C@H](CO)[C@@H](O[C@@H]2O[C@H](CO)[C@H](O)[C@H](NC(=S)NCc3cccnc3)[C@H]2O)[C@H](O)[C@H]1NC(C)=O` — what was its Kd?
Data returned: 43

Data request: Sample `C=CCNC(=S)N[C@H]1[C@@H](O)[C@@H](CO)O[C@@H](O[C@H]2[C@H](O)[C@@H](NC(C)=O)[C@H](OC)O[C@@H]2CO)[C@@H]1O` — what was its Kd?
Data returned: 34

Data request: Sample `CO[C@@H]1O[C@H](CO)[C@@H](O[C@@H]2O[C@H](CO)[C@H](O)[C@H](NC(=S)NC3CCCCC3)[C@H]2O)[C@H](O)[C@H]1NC(C)=O` — what was its Kd?
Data returned: 40

Data request: Sample `CO[C@@H]1O[C@H](CO)[C@@H](O[C@@H]2O[C@H](CO)[C@H](O)[C@H](NC(=S)NCc3ccccc3)[C@H]2O)[C@H](O)[C@H]1NC(C)=O` — what was its Kd?
Data returned: 35

---

For each record, write down the corresponding pKd.
Quick note: pKd values are minus log10 of concentrations in mol/L.

Data request: Param readout = pKd; param system = Galectin-9 (Homo sapiens); param query = `CO[C@@H]1O[C@H](CO)[C@@H](O[C@@H]2O[C@H](CO)[C@H](O)[C@H](NC(=S)NCCCO)[C@H]2O)[C@H](O)[C@H]1NC(C)=O` ; response: value
Sequence (O00182 whole entry): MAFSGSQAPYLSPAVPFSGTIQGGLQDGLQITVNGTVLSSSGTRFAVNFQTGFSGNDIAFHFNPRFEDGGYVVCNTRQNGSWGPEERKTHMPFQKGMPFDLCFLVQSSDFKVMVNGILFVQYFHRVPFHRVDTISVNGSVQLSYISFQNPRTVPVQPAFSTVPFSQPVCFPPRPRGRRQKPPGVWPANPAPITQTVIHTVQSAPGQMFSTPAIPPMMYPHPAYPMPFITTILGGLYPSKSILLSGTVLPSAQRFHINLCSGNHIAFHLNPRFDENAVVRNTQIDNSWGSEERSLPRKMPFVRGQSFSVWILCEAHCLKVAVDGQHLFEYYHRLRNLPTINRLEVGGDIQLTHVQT
Data returned: 4.04

Data request: Param readout = pKd; param system = Galectin-9 (Homo sapiens); param query = `CNC(=S)N[C@H]1[C@@H](O)[C@@H](CO)O[C@@H](O[C@H]2[C@H](O)[C@@H](NC(C)=O)[C@H](OC)O[C@@H]2CO)[C@@H]1O` ; response: value
Data returned: 3.96

Data request: Param readout = pKd; param system = Galectin-9 (Homo sapiens); param query = `CCN(CC)C(=S)N[C@H]1[C@@H](O)[C@@H](CO)O[C@@H](O[C@H]2[C@H](O)[C@@H](NC(C)=O)[C@H](OC)O[C@@H]2CO)[C@@H]1O` ; response: value
Data returned: 3.55

Data request: Param readout = pKd; param system = Galectin-9 (Homo sapiens); param query = `CO[C@@H]1O[C@H](CO)[C@@H](O[C@@H]2O[C@H](CO)[C@H](O)[C@H](NC(=S)N[C@H]3[C@@H](O)[C@@H](CO)O[C@@H](O[C@H]4[C@H](O)[C@@H](NC(C)=O)[C@H](OC)O[C@@H]4CO)[C@@H]3O)[C@H]2O)[C@H](O)[C@H]1NC(C)=O` ; response: value
Data returned: 3.62

Data request: Param readout = pKd; param system = Galectin-9 (Homo sapiens); param query = `CCCCNC(=S)N[C@H]1[C@@H](O)[C@@H](CO)O[C@@H](O[C@H]2[C@H](O)[C@@H](NC(C)=O)[C@H](OC)O[C@@H]2CO)[C@@H]1O` ; response: value
Data returned: 4.16

---

Biological target: Galectin-3 (Homo sapiens, UniProt P17931)
Sequence (P17931 whole entry): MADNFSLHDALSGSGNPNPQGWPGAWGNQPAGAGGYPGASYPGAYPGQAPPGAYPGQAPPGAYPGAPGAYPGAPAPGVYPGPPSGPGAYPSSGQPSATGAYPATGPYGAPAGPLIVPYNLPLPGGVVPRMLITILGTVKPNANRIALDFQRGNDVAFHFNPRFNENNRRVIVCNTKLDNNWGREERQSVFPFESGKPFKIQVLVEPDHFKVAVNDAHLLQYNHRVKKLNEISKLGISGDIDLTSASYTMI
Measure name: pKd
Quick note: pKd values are minus log10 of concentrations in mol/L.

Data request: Sample `CO[C@@H]1O[C@H](CO)[C@@H](O[C@@H]2O[C@H](CO)[C@H](O)[C@H](NC(=S)NCCCO)[C@H]2O)[C@H](O)[C@H]1NC(C)=O` — what was its pKd?
Data returned: 4.19

Data request: Sample `CO[C@@H]1O[C@H](CO)[C@@H](O[C@@H]2O[C@H](CO)[C@H](O)[C@H](NC(=S)Nc3ccccc3)[C@H]2O)[C@H](O)[C@H]1NC(C)=O` — what was its pKd?
Data returned: 4.40

Data request: Sample `CO[C@@H]1O[C@H](CO)[C@@H](O[C@@H]2O[C@H](CO)[C@H](O)[C@H](NC(=S)NCc3cccnc3)[C@H]2O)[C@H](O)[C@H]1NC(C)=O` — what was its pKd?
Data returned: 4.46

Values compiled from BindingDB's records for doi:10.1016/j.bmc.2005.09.050.
